# System: Fibroblast
# EXPERIMENTAL_PROTOCOL: Multiplex assay against human fibroblast
# Type: toxicity, cell-based
# CONDITION_LABEL: 12 h, 1 µM, compound concentration 1 uM, replicate 2
Assign Population Pyknosed Nuclei (%) to each entry below.
Your answer should be a plain number; it is taken to be in %.

The value of Population Pyknosed Nuclei (%) measured for the compound Cl.NC[C@@H]1O[C@H](C23CC4CC(CC(C4)C2)C3)Cc2c1ccc(O)c2O turned out to be 2

The value of Population Pyknosed Nuclei (%) measured for the compound CCOC(=O)CCNc1cc(N2CCc3ccccc3CC2)nc(-c2ccccn2)n1 turned out to be 9

The value of Population Pyknosed Nuclei (%) measured for the compound CCCCCNC(=N)N/N=C/c1c[nH]c2ccc(OC)cc12.O=C(O)/C=C\C(=O)O [TEGASEROD MALEATE] turned out to be 8

The value of Population Pyknosed Nuclei (%) measured for the compound CC(/C=C1\SC(=S)N(CCCC(=O)Nc2ccc(C(=O)O)c(O)c2)C1=O)=C\c1ccccc1 turned out to be 7

The value of Population Pyknosed Nuclei (%) measured for the compound CN1C(=O)[C@@H](NC(=O)c2cc3ccccc3[nH]2)N=C(c2ccccc2)c2ccccc21 [DEVAZEPIDE] turned out to be 9

The value of Population Pyknosed Nuclei (%) measured for the compound CC[C@H](Nc1ncnc2[nH]cnc12)c1nc2cccc(F)c2c(=O)n1-c1ccccc1 turned out to be 9

* * *

# Tested on: Fibroblast
# EXPERIMENTAL_PROTOCOL: Multiplex assay against human fibroblast
# Format: toxicity, cell-based
# CONDITION_LABEL: 12 h, 1 µM, compound concentration 1 uM, replicate 1
QUANTITY_KIND: Population Tubulin-Different-Phenotype (%)
Your answer should be a plain number; it is taken to be in %.

Given the compound CC[C@@H]1C(=O)N(C)c2cnc(Nc3ccc(C(=O)NC4CCN(C)CC4)cc3OC)nc2N1C1CCCC1 [BI-2536] and test system Fibroblast, the measured Population Tubulin-Different-Phenotype (%) is 10

Given the compound CC(/C=C1\SC(=S)N(CCCC(=O)Nc2ccc(C(=O)O)c(O)c2)C1=O)=C\c1ccccc1 and test system Fibroblast, the measured Population Tubulin-Different-Phenotype (%) is 38

Given the compound CCOC(=O)CCNc1cc(N2CCc3ccccc3CC2)nc(-c2ccccn2)n1 and test system Fibroblast, the measured Population Tubulin-Different-Phenotype (%) is 5

Given the compound CCCCN(CC)c1nc(C)nc2c1c(C)cn2-c1c(C)cc(C)cc1C.Cl and test system Fibroblast, the measured Population Tubulin-Different-Phenotype (%) is 46

Given the compound Cc1ccc(S(=O)(=O)NC2c3ccccc3Oc3ccccc32)cc1 and test system Fibroblast, the measured Population Tubulin-Different-Phenotype (%) is 27

Given the compound CC(C)C[C@H](NC(=O)[C@H](Cc1ccccc1)NC(=O)CNC(=O)CNC(=O)[C@@H](N)Cc1ccc(O)cc1)C(=O)O [ENKEPHALIN] and test system Fibroblast, the measured Population Tubulin-Different-Phenotype (%) is 57

Given the compound CCCc1cc(C)[nH]c(=O)c1CNC(=O)c1cc(-c2ccc(N3CCN(C(C)C)CC3)nc2)cc2c1cnn2C(C)C and test system Fibroblast, the measured Population Tubulin-Different-Phenotype (%) is 52

Given the compound CC[C@H](Nc1ncnc2[nH]cnc12)c1nc2cccc(F)c2c(=O)n1-c1ccccc1 [IDELALISIB] and test system Fibroblast, the measured Population Tubulin-Different-Phenotype (%) is 20

* * *

Assign Population Pyknosed Nuclei (%) to each entry below.
# Test system: Fibroblast
# EXPERIMENTAL_PROTOCOL: Multiplex assay against human fibroblast
# Type: toxicity, cell-based
# CONDITION_LABEL: 48 h, 10 µM, compound concentration 10 uM, replicate 2
Your answer should be a plain number; it is taken to be in %.

Given the compound CC(Cc1ccc(O)c(O)c1)C(C)Cc1ccc(O)c(O)c1 (stereo not drawn) [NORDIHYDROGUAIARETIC ACID] and test system Fibroblast, the measured Population Pyknosed Nuclei (%) is 1

Given the compound C[C@@H](Oc1cc(-n2cnc3ccc(CN4CCN(C)CC4)cc32)sc1C(N)=O)c1ccccc1C(F)(F)F [GSK-461364] and test system Fibroblast, the measured Population Pyknosed Nuclei (%) is 2

Given the compound c1ccc(-c2oc3ncnc(NC[C@@H]4CCCO4)c3c2-c2ccccc2)cc1 and test system Fibroblast, the measured Population Pyknosed Nuclei (%) is 0

Given the compound CN1CCN(Cc2ccc(-c3cnc4[nH]cc(-c5ccc6[nH]ccc6c5)c4c3)cc2)CC1 and test system Fibroblast, the measured Population Pyknosed Nuclei (%) is 8

Given the compound Cc1c(P(=S)(c2ccccc2)c2ccccc2)n2ccccc2[n+]1C/C=C/c1ccccc1.[Br-] and test system Fibroblast, the measured Population Pyknosed Nuclei (%) is 29

Given the compound CC(C)C[C@H](NC(=O)[C@H](Cc1ccccc1)NC(=O)CNC(=O)CNC(=O)[C@@H](N)Cc1ccc(O)cc1)C(=O)O [ENKEPHALIN] and test system Fibroblast, the measured Population Pyknosed Nuclei (%) is 0

Given the compound C=CC(=O)Nc1cc(-n2c(=O)ccc3cnc4ccc(-c5ccc(NS(C)(=O)=O)cc5)cc4c32)ccc1C and test system Fibroblast, the measured Population Pyknosed Nuclei (%) is 0

Given the compound CC(C)c1cc(Nc2nc(N3CCC[C@H](N)C3)ncc2C(N)=O)cc(C(C)C)n1 and test system Fibroblast, the measured Population Pyknosed Nuclei (%) is 33

* * *

# System: Fibroblast
# EXPERIMENTAL_PROTOCOL: Multiplex assay against human fibroblast
# Assay type: toxicity, cell-based
# CONDITION_LABEL: 24 h, 10 µM, compound concentration 10 uM, replicate 1
QUANTITY_KIND: Population Hoechst High Intensity Objects (%)
Your answer should be a plain number; it is taken to be in %.

The value of Population Hoechst High Intensity Objects (%) measured for the compound Cl.NC[C@@H]1O[C@H](C23CC4CC(CC(C4)C2)C3)Cc2c1ccc(O)c2O turned out to be 29

The value of Population Hoechst High Intensity Objects (%) measured for the compound Cc1c(P(=S)(c2ccccc2)c2ccccc2)n2ccccc2[n+]1C/C=C/c1ccccc1.[Br-] turned out to be 18

The value of Population Hoechst High Intensity Objects (%) measured for the compound CC(/C=C1\SC(=S)N(CCCC(=O)Nc2ccc(C(=O)O)c(O)c2)C1=O)=C\c1ccccc1 turned out to be 57

The value of Population Hoechst High Intensity Objects (%) measured for the compound c1ccc(-c2oc3ncnc(NC[C@@H]4CCCO4)c3c2-c2ccccc2)cc1 turned out to be 25

The value of Population Hoechst High Intensity Objects (%) measured for the compound Cc1c(Nc2ccc(S(=O)(=O)N3CCN(C)CC3)cc2F)nc2ccc(Nc3cnn(C4CC4)c3)cn2c1=O turned out to be 13

The value of Population Hoechst High Intensity Objects (%) measured for the compound Cc1ccc(S(=O)(=O)NC2c3ccccc3Oc3ccccc32)cc1 turned out to be 16

The value of Population Hoechst High Intensity Objects (%) measured for the compound CC[C@@H]1C(=O)N(C)c2cnc(Nc3ccc(C(=O)NC4CCN(C)CC4)cc3OC)nc2N1C1CCCC1 turned out to be 36

The value of Population Hoechst High Intensity Objects (%) measured for the compound Cl.Cn1c2c(c3ccc(Cl)c(Cl)c31)C(C#N)C1(CCNCC1)NC2=O (configuration not stated) turned out to be 37

The value of Population Hoechst High Intensity Objects (%) measured for the compound Oc1cccc(-c2nc(N3CCOCC3)c3oc4ncccc4c3n2)c1 turned out to be 32

The value of Population Hoechst High Intensity Objects (%) measured for the compound CCOc1ccn(-c2ccc(F)cc2)c(=O)c1C(=O)Nc1ccc(Oc2ccnc(N)c2Cl)c(F)c1 turned out to be 9

The value of Population Hoechst High Intensity Objects (%) measured for the compound CC(Cc1ccc(O)c(O)c1)C(C)Cc1ccc(O)c(O)c1 (configuration not stated) [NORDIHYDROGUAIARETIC ACID] turned out to be 17

The value of Population Hoechst High Intensity Objects (%) measured for the compound CN(c1cc(C(F)(F)F)nc(OCCC(=O)O)n1)c1cccc2c1CCC2 turned out to be 7

* * *

# Tested on: HEK-293T
# EXPERIMENTAL_PROTOCOL: Multiplex assay against HEK293T
# Assay type: toxicity, cell-based
# CONDITION_LABEL: human, 12 h, 10 µM, compound concentration 10 uM, replicate 2
Assign Population Mitotic Cells (%) to each entry below.
Your answer should be a plain number; it is taken to be in %.

Given the molecule CN1C(=O)[C@@H](NC(=O)c2cc3ccccc3[nH]2)N=C(c2ccccc2)c2ccccc21 [DEVAZEPIDE] and test system HEK-293T, the measured Population Mitotic Cells (%) is 74

Given the molecule CC(C)C[C@H](NC(=O)[C@H](Cc1ccccc1)NC(=O)CNC(=O)CNC(=O)[C@@H](N)Cc1ccc(O)cc1)C(=O)O and test system HEK-293T, the measured Population Mitotic Cells (%) is 90

Given the molecule CC(C)c1cc(Nc2nc(N3CCC[C@H](N)C3)ncc2C(N)=O)cc(C(C)C)n1 and test system HEK-293T, the measured Population Mitotic Cells (%) is 35

Given the molecule Cc1c(P(=S)(c2ccccc2)c2ccccc2)n2ccccc2[n+]1C/C=C/c1ccccc1.[Br-] and test system HEK-293T, the measured Population Mitotic Cells (%) is 17

Given the molecule Cc1c(Nc2ccc(S(=O)(=O)N3CCN(C)CC3)cc2F)nc2ccc(Nc3cnn(C4CC4)c3)cn2c1=O and test system HEK-293T, the measured Population Mitotic Cells (%) is 95

Given the molecule CC(/C=C1\SC(=S)N(CCCC(=O)Nc2ccc(C(=O)O)c(O)c2)C1=O)=C\c1ccccc1 and test system HEK-293T, the measured Population Mitotic Cells (%) is 91

Given the molecule CCCCN(CC)c1nc(C)nc2c1c(C)cn2-c1c(C)cc(C)cc1C.Cl and test system HEK-293T, the measured Population Mitotic Cells (%) is 72

Given the molecule CC[C@H](Nc1ncnc2[nH]cnc12)c1nc2cccc(F)c2c(=O)n1-c1ccccc1 and test system HEK-293T, the measured Population Mitotic Cells (%) is 91

Given the molecule CC(Cc1ccc(O)c(O)c1)C(C)Cc1ccc(O)c(O)c1 (configuration not stated) [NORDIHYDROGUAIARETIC ACID] and test system HEK-293T, the measured Population Mitotic Cells (%) is 88

Given the molecule N#Cc1cccc(C(=O)Nc2cc(-c3ccccc3)nn2-c2ccccc2)c1 and test system HEK-293T, the measured Population Mitotic Cells (%) is 54

Given the molecule CC(C)[C@H](CO)Nc1nc(Nc2cccc(Cl)c2)c2ncn(C(C)C)c2n1 and test system HEK-293T, the measured Population Mitotic Cells (%) is 46

Given the molecule CCOc1ccn(-c2ccc(F)cc2)c(=O)c1C(=O)Nc1ccc(Oc2ccnc(N)c2Cl)c(F)c1 and test system HEK-293T, the measured Population Mitotic Cells (%) is 84

Given the molecule CC[C@@H]1C(=O)N(C)c2cnc(Nc3ccc(C(=O)NC4CCN(C)CC4)cc3OC)nc2N1C1CCCC1 and test system HEK-293T, the measured Population Mitotic Cells (%) is 87

Given the molecule Cl.Cn1c2c(c3ccc(Cl)c(Cl)c31)C(C#N)C1(CCNCC1)NC2=O (configuration not stated) and test system HEK-293T, the measured Population Mitotic Cells (%) is 82

Given the molecule NC(=O)c1ccc2nc(-c3ccc(C4(N)CCC4)cc3)c(-c3ccccc3)n2n1 and test system HEK-293T, the measured Population Mitotic Cells (%) is 87

Given the molecule Cc1ccc(NC(=O)Nc2cc(C(F)(F)F)ccc2F)cc1Nc1ccc2c(c1)NC(=O)/C2=C\c1ccc[nH]1 and test system HEK-293T, the measured Population Mitotic Cells (%) is 95

Given the molecule Cc1ccc(S(=O)(=O)NC2c3ccccc3Oc3ccccc32)cc1 and test system HEK-293T, the measured Population Mitotic Cells (%) is 83
